# Test system: HCV 1b-BB7 subgenomic replicon
# Assay Comment: microbe, parasite or virus in culture
# Type: cell-based, HCV genotype 1b
# Experimental Parameters: Hepatitis C virus, stable replicon, strain 1b BB7, 5% FBS, no human plasma; read-out: 1b BB7 5% FBS EC50
Property Name: pEC50
Scale for pEC50: -log10 of concentration given in mol/L; no unit attached.

What the record says about CS(=O)(=O)N(CCCc1ccccc1)c1cc2oc(-c3ccc(F)cc3)c(-c3ncc[nH]3)c2cc1C1CC1 : pEC50 is 7.40

What the record says about CS(=O)(=O)N(CCCN1CCOCC1)c1cc2oc(-c3ccc(F)cc3)c(C3=NOCCN3)c2cc1C1CC1 : pEC50 is 7.52

What the record says about CS(=O)(=O)N(CCC1CCS(=O)(=O)C1)c1cc2oc(-c3ccc(F)cc3)c(C3=NOCCN3)c2cc1C1CC1 (centres unmarked) : pEC50 is 7.74

What the record says about Cc1ccc(C)n1-c1nc(CCCN(c2cc3oc(-c4ccc(F)cc4)c(-c4ncc[nH]4)c3cc2C2CC2)S(C)(=O)=O)cs1 : pEC50 is 7.15

What the record says about CS(=O)(=O)N(Cc1sc(Br)nc1C(F)(F)F)c1ccc2c(-c3ncc[nH]3)c(-c3ccccc3)oc2c1 : pEC50 is 6.06

What the record says about CC(C)CCCN(c1cc2oc(-c3ccc(F)cc3)c(-c3ncc[nH]3)c2cc1C1CC1)S(C)(=O)=O : pEC50 is 7.64

What the record says about CCCN(c1cc2oc(-c3ccc(F)cc3)c(-c3ncc[nH]3)c2cc1C1CC1)S(C)(=O)=O : pEC50 is 7.92

What the record says about CC(C)CCN(c1cn2nc(-c3ccc(F)cc3)c(-c3ncc[nH]3)c2cc1C1CC1)S(C)(=O)=O : pEC50 is 7.24

What the record says about CS(=O)(=O)N(CCC1CCS(=O)(=O)C1)c1cc2oc(-c3ccc(F)cc3)c(C3=NOCN3)c2cc1C1CC1 (centres unmarked) : pEC50 is 8.40

What the record says about CS(=O)(=O)N(CC1CCCCC1)c1cc2oc(-c3ccc(F)cc3)c(-c3ncc[nH]3)c2cc1C1CC1 : pEC50 is 6.74

What the record says about CS(=O)(=O)Nc1cc2oc(-c3ccc(F)cc3)c(C3=NOCN3)c2cc1C1CC1 : pEC50 is 6.52

What the record says about CS(=O)(=O)N(CCCCO)c1cc2oc(-c3ccc(F)cc3)c(-c3ncc[nH]3)c2cc1C1CC1 : pEC50 is 8.43

What the record says about CS(=O)(=O)N(CC1CCCO1)c1cc2oc(-c3ccc(F)cc3)c(-c3ncc[nH]3)c2cc1C1CC1 (centres unmarked) : pEC50 is 7.35

What the record says about CC(C)(O)C(=O)CCN(c1cc2oc(-c3ccc(F)cc3)c(-c3ncc[nH]3)c2cc1C1CC1)S(C)(=O)=O : pEC50 is 7.56

What the record says about CS(=O)(=O)N(CCCC(N)=O)c1cc2oc(-c3ccc(F)cc3)c(-c3ncc[nH]3)c2cc1C1CC1 : pEC50 is 8.00

What the record says about CS(=O)(=O)NCCCN(c1cc2oc(-c3ccc(F)cc3)c(-c3ncc[nH]3)c2cc1C1CC1)S(C)(=O)=O : pEC50 is 8.32

What the record says about CS(=O)(=O)N(CCCC#N)c1cc2oc(-c3ccc(F)cc3)c(C3=NOCCN3)c2cc1C1CC1 : pEC50 is 8.22

What the record says about CCN(CC)CCCN(c1cc2oc(-c3ccc(F)cc3)c(C3=NOCCN3)c2cc1C1CC1)S(C)(=O)=O : pEC50 is 7.59

What the record says about CS(=O)(=O)CCCCN(c1cc2oc(-c3ccc(F)cc3)c(C3=NOCN3)c2cc1C1CC1)S(C)(=O)=O : pEC50 is 8.40

What the record says about CS(=O)(=O)N(CCC1CCOCC1)c1cc2oc(-c3ccc(F)cc3)c(-c3ncc[nH]3)c2cc1C1CC1 : pEC50 is 8.08

What the record says about CS(=O)(=O)N(CN1C(=O)c2ccccc2C1=O)c1cc2oc(-c3ccc(F)cc3)c(-c3ncc[nH]3)c2cc1C1CC1 : pEC50 is 5.80

What the record says about CCN(CC)CCN(c1cc2oc(-c3ccc(F)cc3)c(C3=NOCCN3)c2cc1C1CC1)S(C)(=O)=O : pEC50 is 7.42

What the record says about CS(=O)(=O)N(Cc1cnc(Br)s1)c1cc2oc(-c3ccc(F)cc3)c(-c3ncc[nH]3)c2cc1C1CC1 : pEC50 is 7.86
